Listing: MIC of selected compounds
# Tested on: Staphylococcus aureus
# Test Protocol: Antibacterial activity against Staphylococcus aureus 794 incubated for 18 to 24 hrs by broth microdilution method
# Type: functional
# Cond: time 18-24 hrs
Non-standard residues stand in square brackets, D forms with d. Residues, ends and D or L forms follow the SMILES beside them. pY = N[C@@H](Cc1ccc(OP(=O)(O)O)cc1)C(=O)O; 2Nal = N[C@@H](Cc1ccc2ccccc2c1)C(=O)O
Your answer is read as µM, so omit the unit and give the number.

What MIC value was documented for this compound, CC(C)C[C@H](NC(=O)[C@H](CC(C)C)NC(=O)[C@H](Cc1ccc(OP(=O)(O)O)cc1)NC(=O)[C@H](CCCCN)NC(=O)[C@H](Cc1c[nH]c2ccccc12)NC(=O)[C@H](CCCNC(=N)N)NC(=O)[C@H](CCCCN)NC(=O)[C@H](CC(C)C)NC(=O)[C@H](CC(C)C)NC(=O)CN)C(N)=O (H-GLLKRWK[pY]LL-NH2) ?
32

Others:
Give its MIC value. Item: CC(C)C[C@H](NC(=O)[C@H](CC(C)C)NC(=O)[C@H](Cc1ccc(OP(=O)(O)O)cc1)NC(=O)[C@H](CCCCN)NC(=O)[C@H](CC(C)C)NC(=O)[C@H](CCCNC(=N)N)NC(=O)[C@H](CCCCN)NC(=O)[C@H](Cc1ccc2ccccc2c1)NC(=O)[C@H](CC(C)C)NC(=O)CN)C(N)=O (H-GL[2Nal]KRLK[pY]LL-NH2)
8

Data origin, for the record: ChEMBL document CHEMBL6092167
